These entries and their values trace back to patent US20120201826A1.

Target: T1, recombinant human RANTES (huRANTES, Peprotech) (human, UniProt P13501 24-91)
T1 sequence: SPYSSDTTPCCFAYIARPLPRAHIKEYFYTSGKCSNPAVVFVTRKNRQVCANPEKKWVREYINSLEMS
Test: cell-based or functional assay
measurement.type: Chemotaxis IC50 (nM), 1 nM huRANTES; L1.2-hCCR5 cells; IgG1 format
The reply should contain only the number, in nM.

D1 antibody, IgG1 format (antibody, V domains shown) VH: EVQLVQSGPEVKKPGATVKISCNVSAETFTDYYIHWVKQAPGRGLEWMGLVDSEEDGETLFAETFRGRVALTADRSTNTAYMELRSLRHDDTAVYYCAAEYGEYGFFQSWGQGTLVTVSS VL: QSVLTQPPSVSGAPGQRVTISCTGSSSNIGADYDVNWYQQLPGTSPKLLIYGDINRPSGVPDRFSASKSGTSASLAITGLQAEDEADYYCQSFDNSLSGSVIFGGGTKLTVL yielded Chemotaxis IC50 (nM), 1 nM huRANTES; L1.2-hCCR5 cells; IgG1 format of 7

E10 antibody, IgG1 format (antibody, V domains shown) VH: QVQLVESGGGVVQPGRSLRLSCAASGFTFSSYAMHWVRQAPGKGLEWVAVISYDGSNKYYADSVKGRFSISRDNSKNTLYLQMNSLRAEDTAVYYCARETFPHYYYYYMDVWGKGTMVTVSS VL: SYVLTQPPSVSVAPGQTARISCGGGNFDDEGVHWYQQTPGQAPVLVVYDDTGRPSGIPERFSGSSSGNTATLTISRVEAGDEADYYCQAWDSSNDHPVFGGGTQLTVL yielded Chemotaxis IC50 (nM), 1 nM huRANTES; L1.2-hCCR5 cells; IgG1 format of 16
